Test system: PyIESI-1 RRM domain (Plasmodium yoelii PY17X_0911200 aa 795-956, GST fusion)
protocol summary: RBNS R-value (6-mer enrichment in protein-bound RNA vs input library) (ratio); higher = stronger binding preference
particulars: protein concentration: 1000 nM
Over roughly 4,100 sequences, “RBNS R-value (6-mer enrichment in protein-bound RNA vs input library)” has its median near 0.96; the highest 2% begin near 2.4. For the sample, the highest values were picked, then their nearest neighbours and some sequences at random.
Task for the reader: assign each of the following sequences its reported RBNS R-value.
Number, no unit, nothing else.

query: For the sequence GUGGAG , give its reported RBNS R-value.
result: 0.96

query: Assign RBNS R-value to the following record: GAAUGU
result: 0.972

query: Identify measured RBNS R-value associated with CGGUGA
result: 1.35

query: Complete the entry with RBNS R-value for GGAUUU
result: 1.06

query: Give a short answer stating reported RBNS R-value for AAUGUU .
result: 0.819

query: Given the sequence GGGUGU , write its reported RBNS R-value.
result: 0.941

query: Please give the documented RBNS R-value of UCGCGU
result: 0.835

query: Give the value of RBNS R-value reported for the following: GCAAGC
result: 0.931

query: Give RBNS R-value for AAAUGA
result: 2.4

query: Specify RBNS R-value for CGAUUA and stop.
result: 1.94

query: Entry UAAUGA needs its RBNS R-value filled in; supply it.
result: 1.71

query: Output measured RBNS R-value for this item: CAAGGC
result: 0.949

query: Answer with the recorded RBNS R-value of CAUGUU only.
result: 0.737

query: Please list RBNS R-value recorded for the sequence AAUCAC
result: 0.718

query: Return value of RBNS R-value for input UGCUGA , no commentary.
result: 1.99

query: Specify reported RBNS R-value for the sequence shown: AGUCAG
result: 0.664

query: Supply RBNS R-value value. Item: GAAUGC
result: 1.17

query: Identify the reported RBNS R-value for the following entry. CAUGUG
result: 1.03

query: Please supply the value of reported RBNS R-value for the item GAAUGA
result: 2.3

query: Give RBNS R-value for UUUGUU
result: 0.907

query: Kindly indicate its recorded RBNS R-value. Item: GAUGUU
result: 2.87

query: Provide RBNS R-value value for the following sequence: GAUGUG
result: 3.14

query: Please list RBNS R-value recorded for the sequence UAUGUG
result: 0.978

* * *

Tested on: PyIESI-1 RRM domain (Plasmodium yoelii PY17X_0911200 aa 795-956, GST fusion)
protocol summary: RBNS R-value (6-mer enrichment in protein-bound RNA vs input library) (ratio); higher = stronger binding preference; the methods of the paper give 50 / 100 / 500 nM protein instead
particulars: protein concentration: 250 nM
The full ranking holds about 4,100 sequences; the median of “RBNS R-value (6-mer enrichment in protein-bound RNA vs input library)” is about 0.96, and the highest 2% start at about 2.4. The sample holds the highest values, similar sequences and a random draw of the others, so the mix is not that of the screen.
Each entry gets not fulfilled if its RBNS R-value stays under 1, and fulfilled if its RBNS R-value is 1 or above.

query: Please indicate if the recorded RBNS R-value for AGAUCU meets or exceeds 1.
result: not fulfilled

query: Textbook exercise: given the entry GGAUCA , state whether its RBNS R-value is greater than or equal to 1.
result: not fulfilled

query: Given UAGAUG , state whether its RBNS R-value is at least 1.
result: fulfilled

query: hey, is RBNS R-value for this one >= 1? ACCGCG
result: fulfilled

query: Textbook exercise: given the entry UGGCCA , state whether its RBNS R-value is greater than or equal to 1.
result: fulfilled

query: Say whether CGAUCU shows RBNS R-value of 1 or more.
result: fulfilled

query: Has UGAUCC a recorded RBNS R-value greater than or equal to 1?
result: fulfilled

query: Assess whether reported RBNS R-value for CGAUCC sits at 1 or higher.
result: fulfilled

query: Given the entry UUGAAG , answer whether its RBNS R-value meets or surpasses 1.
result: fulfilled

query: Check if RBNS R-value >= 1 (inclusive). Item: UUGCAC
result: fulfilled

query: Is it the case that GGAUCC has RBNS R-value reaching or exceeding 1?
result: not fulfilled

query: Confirm if RBNS R-value reported for the sequence ACGAAC is 1 or above.
result: not fulfilled
